System: leukemia cells K562
assay_protocol: Cytotoxicity in drug-sensitive leukemia K562 cells by MTS assay
Type: cell-based
applied_conditions: Homo sapiens; drug-sensitive K562, MTS assay, 72 hours; read-out: IC50 in K562
pIC50: −log10 of the molar value.
Assign fulfilled whenever pIC50 does not fall below 7; assign not fulfilled whenever it does.

{"columns": ["molecule", "assigned_class"],
 "data": [
  ["COc1cccc2c1C(=O)c1c(O)c3c(c(O)c1C2=O)C[C@@](O)(C(C)=O)C[C@@H]3O[C@H]1C[C@H](N)[C@H](O)[C@H](C)O1 [DNR, daunorubicin, reference compound]", "fulfilled"],
  ["COc1cccc2c1C(=O)c1c(O)c3c(c(O)c1C2=O)C[C@@](O)(C(C)=O)C[C@@H]3OC1CC(N=[N+]=[N-])C(OC2CCC(O)C(C)O2)C(C)O1 (stereo partly drawn)", "not fulfilled"],
  ["COc1cccc2c1C(=O)c1c(O)c3c(c(O)c1C2=O)C[C@@](O)(C(C)=O)C[C@@H]3OC1CC(N=[N+]=[N-])C(OC2CC(N=[N+]=[N-])C(O)C(C)O2)C(C)O1 (stereo partly drawn)", "not fulfilled"],
  ["COc1cccc2c1C(=O)c1c(O)c3c(c(O)c1C2=O)C[C@@](O)(C(C)=O)C[C@@H]3OC1CC(N=[N+]=[N-])C(OC2CC(O)C(O)C(C)O2)C(C)O1 (stereo partly drawn)", "not fulfilled"],
  ["COc1cccc2c1C(=O)c1c(O)c3c(c(O)c1C2=O)C[C@@](O)(C(C)=O)C[C@@H]3OC1CC(N=[N+]=[N-])C(OC2CC(C)(OC)C(O)C(C)O2)C(C)O1 (stereo partly drawn)", "not fulfilled"]
]}
